protocol_summary: half-life of dinalbuphine sebacoyl ester in dog blood, HPLC
Format: in vitro ADME
experimental_context: red blood cells; dog red blood cell, n=3; read-out: Elimination Half-life
quantity_kind: half-life (min)

{"columns": ["smiles_str", "unit_of_measure", "assay_result"],
 "data": [
  ["O=C(CCCCCCCCC(=O)Oc1ccc2c3c1O[C@H]1[C@@H](O)CC[C@@]4(O)[C@@H](C2)N(CC2CCC2)CC[C@]314)Oc1ccc2c3c1O[C@H]1[C@@H](O)CC[C@@]4(O)[C@@H](C2)N(CC2CCC2)CC[C@]314", "min", 33.4]
]}

###

protocol_summary: half-life of dinalbuphine sebacoyl ester in dog blood, HPLC
Type: in vitro ADME
experimental_context: dog plasma, n=3; read-out: Elimination Half-life
quantity_kind: half-life (min)

{"columns": ["smiles_str", "quantity_kind", "assay_result"],
 "data": [
  ["O=C(CCCCCCCCC(=O)Oc1ccc2c3c1O[C@H]1[C@@H](O)CC[C@@]4(O)[C@@H](C2)N(CC2CCC2)CC[C@]314)Oc1ccc2c3c1O[C@H]1[C@@H](O)CC[C@@]4(O)[C@@H](C2)N(CC2CCC2)CC[C@]314", "half-life", 27.8]
]}

The origin of these recorded values is patent EP1149836B1.
